- assay info: Biodistribution in HEK-uPAR xenografted nude mice
- protocol conditions: CD1 nude, mouse, salivary glands, 0.5 nmol/mouse, total radioactivity, Salivary glands uptake, 1 h p.i.; decay-corrected

compound | unit abbreviation | tissue uptake at 1 h
CC(C)C[C@H](NC(=O)[C@H](Cc1ccc(O)cc1)NC(=O)[C@@H](CCCNC(=N)N)NC(=O)[C@@H](CO)NC(=O)[C@H](Cc1ccccc1)NC(=O)[C@H](CC1CCCCC1)NC(=O)[C@H](CC(=O)O)NC(=O)CN1CCN(CC(=O)O)CCN(CC(=O)O)CCN(CC(=O)O)CC1)C(=O)N[C@@H](Cc1c[nH]c2ccccc12)C(=O)N[C@@H](CO)C(N)=O [[^177Lu]Lu-DOTA-AE105, metal not drawn] | %ID/g | 0.35

----------
- assay info: in vivo
- protocol conditions: CD1 nude, mouse, 0.5 nmol/mouse, total radioactivity, Brain uptake
recorded metric: tissue uptake at 24 h

compound | assay value
Cc1ccc(CCCC(=O)NCCCCCCCC(=O)NCCCC[C@H](NC(=O)CN2CCN(CC(=O)O)CCN(CC(=O)O)CCN(CC(=O)O)CC2)C(=O)N[C@@H](CC(=O)O)C(=O)N[C@@H](CC2CCCCC2)C(=O)N[C@@H](Cc2ccccc2)C(=O)N[C@H](CO)C(=O)N[C@H](CCCNC(=N)N)C(=O)N[C@@H](Cc2ccc(O)cc2)C(=O)N[C@@H](CC(C)C)C(=O)N[C@@H](Cc2c[nH]c3ccccc23)C(=O)N[C@@H](CO)C(N)=O)cc1 [[^177Lu]Lu-uPAR-12, metal not drawn] | 0.1 %ID/g

----------
- assay info: in vivo
- protocol conditions: CD1 nude, mouse, 0.5 nmol/mouse, total radioactivity, Muscle uptake
Quick list: tissue uptake at 4 h per entry.
recorded metric: tissue uptake at 4 h (%ID/g)

compound | recorded metric | unit abbreviation | assay value
Cc1ccc(CCCC(=O)NCCOCCOCCOCCOCCC(=O)NCCCC[C@H](NC(=O)CC[C@H](C(=O)O)N2CCN(CC(=O)O)CCN(CC(=O)O)CCN(CC(=O)O)CC2)C(=O)N[C@@H](CC(=O)O)C(=O)N[C@@H](CC2CCCCC2)C(=O)N[C@@H](Cc2ccccc2)C(=O)N[C@H](CO)C(=O)N[C@H](CCCNC(=N)N)C(=O)N[C@@H](Cc2ccc(O)cc2)C(=O)N[C@@H](CC(C)C)C(=O)N[C@@H](Cc2c[nH]c3ccccc23)C(=O)N[C@@H](CO)C(N)=O)cc1 [[^177Lu]Lu-uPAR-17, metal not drawn] | tissue uptake at 4 h | %ID/g | 0.57
Cc1ccc(CCCC(=O)NCCOCCOCCOCCC(=O)NCCCC[C@H](NC(=O)CN2CCN(CC(=O)O)CCN(CC(=O)O)CCN(CC(=O)O)CC2)C(=O)N[C@@H](CC(=O)O)C(=O)N[C@@H](CC2CCCCC2)C(=O)N[C@@H](Cc2ccccc2)C(=O)N[C@H](CO)C(=O)N[C@H](CCCNC(=N)N)C(=O)N[C@@H](Cc2ccc(O)cc2)C(=O)N[C@@H](CC(C)C)C(=O)N[C@@H](Cc2c[nH]c3ccccc23)C(=O)N[C@@H](CO)C(N)=O)cc1 [[^177Lu]Lu-uPAR-15, metal not drawn] | tissue uptake at 4 h | %ID/g | 0.41
Cc1ccc(CCCC(=O)NCCCCCCCC(=O)NCCCC[C@H](NC(=O)CN2CCN(CC(=O)O)CCN(CC(=O)O)CCN(CC(=O)O)CC2)C(=O)N[C@@H](CC(=O)O)C(=O)N[C@@H](CC2CCCCC2)C(=O)N[C@@H](Cc2ccccc2)C(=O)N[C@H](CO)C(=O)N[C@H](CCCNC(=N)N)C(=O)N[C@@H](Cc2ccc(O)cc2)C(=O)N[C@@H](CC(C)C)C(=O)N[C@@H](Cc2c[nH]c3ccccc23)C(=O)N[C@@H](CO)C(N)=O)cc1 [[^177Lu]Lu-uPAR-12, metal not drawn] | tissue uptake at 4 h | %ID/g | 1.2
Cc1ccc(CCCC(=O)NCCOCCOCCOCCOCCC(=O)NC[C@H](NC(=O)CN2CCN(CC(=O)O)CCN(CC(=O)O)CCN(CC(=O)O)CC2)C(=O)N[C@@H](CC(=O)O)C(=O)N[C@@H](CC2CCCCC2)C(=O)N[C@@H](Cc2ccccc2)C(=O)N[C@H](CO)C(=O)N[C@H](CCCNC(=N)N)C(=O)N[C@@H](Cc2ccc(O)cc2)C(=O)N[C@@H](CC(C)C)C(=O)N[C@@H](Cc2c[nH]c3ccccc23)C(=O)N[C@@H](CO)C(N)=O)cc1 [[^177Lu]Lu-uPAR-14, metal not drawn] | tissue uptake at 4 h | %ID/g | 0.51
